Can you tell me normalized growth for the items I'm about to list?
# protocolNotes: chemical genetic growth profiling, strain panel (AID 1159580);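 further: tested at 20 µM; growth read once vehicle control cultures reached saturation at 30 °C; 1 = growth at the plate median or of vehicle wells; lower values mean less growth of the strain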
# conditionLabel: S. cerevisiae deletion strains, growth OD, locus YOR231W, strain MKK1, stronger effect = lower value
The campaign covered roughly 5,500 compounds. About 2,000 (36%) were called active. Inconclusive results (about 18%) are left out. This is one part of the list.
Output: the number by itself.

Need normalized growth, item CCCC(C)C1(CC)C(=O)NC(=O)NC1=O (configuration not stated)
0.996

Returns the measured normalized growth for the input compound. Input: CO[C@H]1/C=C/O[C@@]2(C)Oc3c(C)c(O)c4c(O)c(c5c(nc6cc(C)ccn65)c4c3C2=O)NC(=O)/C(C)=C\C=C\[C@H](C)[C@H](O)[C@@H](C)C(O)[C@@H](C)[C@H](OC(C)=O)[C@@H]1C (some centres not stated)
0.989

Using the record for CCCC(C)C1(CC)C(=O)N=C(S)NC1=O (configuration not stated) , report its normalized growth.
0.994

Fill in: normalized growth of Nc1ncnc2c1ncn2C1O[C@H](COP(=O)(O)O)[C@@H](O)[C@H]1O (some centres not stated) is ___
1.01

Sample C=CCC1(C(C)CCC)C(=O)N=C(S)NC1=O (configuration not stated) — what was its normalized growth?
0.984

Consider the compound CN1C(CC(=O)c2ccccc2)CCCC1CC(O)c1ccccc1 (configuration not stated) and give its measured normalized growth.
0.978

Given the entry Cc1occc(=O)c1O , report its measured normalized growth.
1.02
